Overview of recorded pKd for various sequences
- ASSAY_TARGET: HLA-A*02:01
- TEST_METHOD_NOTES: IEDB peptide-MHC binding, purified MHC/direct/fluorescence; filed as Kd, often an IC50 or EC50 that approximates it; bounds were set here for any values at or beyond the usual limits of such assays
- MEASUREMENT_SETUP: source organism: Vibrio vulnificus
pKd: −log10 of the molar value.

# RESIDUES, MEASUREMENT_QUALIFIER, pKd
measured = [
    ("VNGVKGIQF", "≤", 4.70),
    ("MSDWGHITV", "=", 6.56),
]

----------
- ASSAY_TARGET: HLA-B*58:01
- TEST_METHOD_NOTES: IEDB peptide-MHC binding, purified MHC/direct/fluorescence; filed as Kd, often an IC50 or EC50 that approximates it; bounds were set here for any values at or beyond the usual limits of such assays
- MEASUREMENT_SETUP: source organism: Marburg virus - Musoke, Kenya, 1980
Overview of recorded Kd for various sequences

# RESIDUES, Kd
rows = [
    ("SEINNLNLT", "≥ 20 µM"),
    ("SSNAKNSEW", "0.0699 µM"),
    ("ALFHKVQSY", "≥ 20 µM"),
]
